assay_info: Cytotoxicity against human HEK293 cells assessed as reduction in cell viability measured after 48 hrs by resazurin assay
Type: cell-based
observable: CC50 at 48 h

Sample records with CC50 at 48 h:
- molecular_string: "CCCn1c(NC(=O)Cc2ccc(OC)cc2)nc2ccccc21"
  CC50 at 48 h: "> 83 µM"
- molecular_string: "CCCn1c(NC(=O)Cc2ccc(OC(C)=O)cc2)nc2ccccc21"
  CC50 at 48 h: "> 83 µM"
- molecular_string: "CCCn1c(NC(=O)Cc2cccc(C)c2)nc2ccccc21"
  CC50 at 48 h: "15 µM"

Which CC50 at 48 h is reported for this compound? CCCCC(=O)Nc1nc2ccccc2n1CCC
2.6 µM

Any idea what CC50 at 48 h was measured for CCCn1c(NC(=O)c2ccccc2)nc2ccccc21 ?
> 83 µM

Find the recorded CC50 at 48 h belonging to CCCCCCCCC(=O)Nc1nc2ccccc2n1CCC and report it.
> 83 µM

---

assay_info: Cytotoxicity against human HEK293 cells assessed as reduction in cell viability measured after 48 hrs by resazurin assay
Type: cell-based
observable: CC50 at 48 h

These solved cases illustrate the format of a correct answer.
- compound: "CCCn1c(NC(=O)Cc2ccccc2)nc2ccccc21"
  reported_value: "> 83 µM"
- compound: "CCCCCn1c(NC(=O)Cc2ccc(Cl)cc2)nc2ccccc21"
  reported_value: "> 83 µM"
- compound: "N=C(N)c1ccc(/N=N/Nc2ccc(C(=N)N)cc2)cc1 [DIMINAZENE DIACETURATE]"
  reported_value: "38.5 µM"
- compound: "CCCn1c(NC(=O)Cc2ccc(C(F)(F)F)cc2)nc2ccccc21"
  reported_value: "> 83 µM"
- compound: "CCCn1c(NC(=O)Cc2ccc(O)cc2)nc2ccccc21"
  reported_value: "> 83 µM"

Consider the compound shown here: CCCn1c(NC(=O)Cc2ccc(Cl)nc2)nc2ccccc21 What is its recorded CC50 at 48 h?
> 83 µM

Which CC50 at 48 h is reported for this compound? CCCn1c(NC(=O)Cc2cccc(F)c2)nc2ccccc21
> 83 µM

Report CC50 at 48 h for CCCn1c(NC(=O)Cc2cccc(Cl)c2)nc2ccccc21 please.
15 µM

---

assay_info: Cytotoxicity against rat H9c2 cells assessed as reduction in cell viability
Format: cell-based
observable: CC50

Sample records with CC50:
- molecular_string: "CCCCC(=O)Nc1nc2ccccc2n1CCC"
  CC50: "25 µM"
- molecular_string: "CCCn1c(NC(=O)Cc2ccc(-c3ccccc3)cc2)nc2ccccc21"
  CC50: "> 50 µM"

For C=CCc1c(NC(=O)Cc2ccc(Cl)cc2)ncc2ccccc12 , what is its reported CC50?
> 50 µM

Item CCCn1c(NC(=O)Cc2ccccc2F)nc2ccccc21 has what recorded CC50?
> 50 µM

Give the measured CC50 of CCCn1c(NC(=O)Cc2ccc(Cl)cc2)nc2cccc(C)c21 .
> 50 µM

---

System: Trypanosoma cruzi
assay_info: Antitrypanosomal activity against Trypanosoma cruzi infected in rat H9c2 infected with trypomastigotes from parasite-infected monkey LLC-MK2 cells measured after 72 hrs by DRAQ5 DNA dye based microscopic imaging analysis
Assay type: functional, organism-based
measurement_parameters: H9c2, 72 h
Rule: measured IC50 below 3000 nM gets satisfied; anything equal to or greater than 3000 nM gets not satisfied.

- compound: "CCCn1c(NC(=O)Cc2ccccc2Br)nc2ccccc21"
  group_label: "satisfied"
- compound: "CCCn1c(NC(=O)Cc2ccc(O)cc2)nc2ccccc21"
  group_label: "not satisfied"
- compound: "C=CCc1c(NC(=O)Cc2ccc(Cl)cc2)ncc2ccccc12"
  group_label: "not satisfied"
- compound: "CCCn1c(NC(=O)CCCc2ccccc2)nc2ccccc21"
  group_label: "satisfied"

Find out if reported IC50 for CCCn1c(NC(=O)Cc2ccccc2C)nc2ccccc21 is less than 3000 nM
satisfied

Below 3000 nM on IC50? Entry CCCn1c(NC(=O)Cc2ccc(Cl)cc2)nc2c(OC)cccc21
not satisfied

Is IC50 of CCCn1c(NC(=O)CCc2ccccc2)nc2ccccc21 strictly below 3000 nM?
not satisfied

Item CCCn1c(NC(=O)Nc2ccc(Cl)cc2)nc2ccccc21 : IC50 beneath 3000 nM, strictly?
satisfied

Hello, is IC50 of the following compound strictly smaller than 3000 nM? CCCc1c(NC(=O)Cc2ccc(Cl)cc2)ncc2ccccc12
satisfied
